Molecular target: KDR (phospho-KDR, VEGF165-stimulated HUVEC cells) (Homo sapiens (Human))
Sequence (P35968 20-1356): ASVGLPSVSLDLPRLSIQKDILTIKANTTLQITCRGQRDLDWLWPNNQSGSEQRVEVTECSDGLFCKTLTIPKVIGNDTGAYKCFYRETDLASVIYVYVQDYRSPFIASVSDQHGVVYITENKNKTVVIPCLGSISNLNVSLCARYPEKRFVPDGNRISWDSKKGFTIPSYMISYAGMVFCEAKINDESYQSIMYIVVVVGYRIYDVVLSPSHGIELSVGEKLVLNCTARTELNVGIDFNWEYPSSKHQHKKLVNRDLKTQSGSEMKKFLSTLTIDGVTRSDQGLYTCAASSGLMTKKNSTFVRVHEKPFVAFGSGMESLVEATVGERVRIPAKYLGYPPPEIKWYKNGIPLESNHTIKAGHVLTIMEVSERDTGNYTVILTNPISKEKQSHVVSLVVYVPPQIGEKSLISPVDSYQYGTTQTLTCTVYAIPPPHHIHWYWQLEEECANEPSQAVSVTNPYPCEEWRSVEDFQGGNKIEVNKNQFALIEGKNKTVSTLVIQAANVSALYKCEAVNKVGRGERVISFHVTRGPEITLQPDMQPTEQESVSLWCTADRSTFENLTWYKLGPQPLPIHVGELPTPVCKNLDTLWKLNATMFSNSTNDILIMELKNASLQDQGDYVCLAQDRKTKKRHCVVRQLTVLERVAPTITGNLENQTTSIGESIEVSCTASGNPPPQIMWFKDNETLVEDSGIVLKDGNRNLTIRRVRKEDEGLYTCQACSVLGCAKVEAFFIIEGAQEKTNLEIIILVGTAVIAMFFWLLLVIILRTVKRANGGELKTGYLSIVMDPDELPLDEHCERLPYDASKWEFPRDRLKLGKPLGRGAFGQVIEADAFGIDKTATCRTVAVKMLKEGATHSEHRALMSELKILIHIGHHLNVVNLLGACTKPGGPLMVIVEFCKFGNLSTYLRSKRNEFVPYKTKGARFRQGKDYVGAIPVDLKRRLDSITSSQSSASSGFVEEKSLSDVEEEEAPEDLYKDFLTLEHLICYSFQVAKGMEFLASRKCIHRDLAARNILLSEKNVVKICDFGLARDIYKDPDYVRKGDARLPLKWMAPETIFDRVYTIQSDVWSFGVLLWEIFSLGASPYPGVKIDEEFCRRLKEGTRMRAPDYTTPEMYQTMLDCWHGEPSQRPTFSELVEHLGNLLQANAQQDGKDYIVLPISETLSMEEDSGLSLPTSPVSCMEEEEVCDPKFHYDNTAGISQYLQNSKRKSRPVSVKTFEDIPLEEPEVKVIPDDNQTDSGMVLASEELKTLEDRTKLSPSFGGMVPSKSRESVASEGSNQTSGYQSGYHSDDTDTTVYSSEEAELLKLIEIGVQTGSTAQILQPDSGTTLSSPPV
Assay: KDR autophosphorylation ELISA in HUVEC cells (Example G)
Format: cell-based
Settings: cellular activity; KDR autophosphorylation ELISA in HUVEC cells
pIC50: −log10 of the molar value. Structures can show the parent of a compound that is named as a salt.
I'd appreciate it if you could supply pIC50 values for the items below.

>>> result("COc1cnc2c(Oc3ccc(NC(=O)c4ccc(C)n(-c5ccc(F)cc5C)c4=O)cc3F)ccnc2c1")
"> 7.00"
>>> result("COc1cnc2c(Oc3ccc(NC(=O)c4n[nH]c(C)c(-c5ccc(F)cc5)c4=O)cc3F)ccnc2c1")
"> 7.00"
>>> result("COc1cnc2c(Oc3ccc(NC(=O)c4cnc(C)c(-c5ccc(F)c(F)c5)c4O)cc3F)ccnc2c1")
"> 7.00"
>>> result("COc1cnc2c(Oc3ccc(NC(=O)c4n[nH]c(C)c(-c5ccc(F)cc5C)c4=O)cc3F)ccnc2c1 [Compound 249A]")
"6.52 to 7.00"
>>> result("COCCOc1cc2nccc(Oc3ccc(NC(=O)c4cn(C)c(C)c(-c5ccc(F)cc5)c4=O)cc3F)c2nc1OC")
"> 7.00"
>>> result("COc1cc2nccc(Oc3ccc(NC(=O)c4cn(C)c(C)c(-c5ccccc5)c4=O)cc3F)c2nc1OC [Compound 36, hydrochloride]")
"6.52 to 7.00"

Quick request: pIC50 for each listed item, please.
1. COc1ccc(-c2c(C)ncc(C(=O)Nc3ccc(Oc4ccnc5cc(OC)cnc45)c(F)c3)c2O)c(F)c1
2. COc1cc2nccc(Oc3ccc(NC(=O)c4c(C)c(C)nn(-c5ccc(F)cc5)c4=O)cc3)c2nc1OC
3. CCOc1ccn(-c2ccc(F)cc2)c(=O)c1C(=O)Nc1ccc(Oc2ccnc3nc(OC)c(OCCOC)cc23)c(F)c1
4. COc1cc2nccc(Oc3ccc(NC(=O)c4cn5c(c(-c6ccc(F)cc6)c4=O)OC(C)C5)cc3F)c2nc1OC (centres unmarked)
5. C=Cc1c(C)c(C(=O)Nc2ccc(Oc3ccnc4cc(OC)c(OC)nc34)cc2)c(=O)n(-c2ccc(F)cc2)c1C

> 7.00
< 6.52
< 6.52
> 7.00
< 6.52

Hello, I would appreciate it if you could give pIC50 for each entry below.
1. COCc1nc(C)c(-c2ccc(F)cc2)c(O)c1C(=O)Nc1ccc(Oc2ccnc3cnc(Cl)cc23)c(F)c1
2. COc1cc2nccc(Oc3cc(F)c(NC(=O)c4cnc(C)c(-c5ccc(F)cc5)c4O)cc3F)c2nc1C
3. CNc1ncc(C(=O)Nc2ccc(Oc3ccnc4cc(OC)c(OC)nc34)c(F)c2)c(=O)n1-c1ccc(F)cc1

> 7.00
> 7.00
> 7.00
